# System: SHP2-C SH2;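 also: peptide library displayed on the E. coli surface as eCPX fusions, selected cells deep-sequenced, score is each peptide's frequency after selection divided by its frequency in the input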
# Experiment notes: SH2 binding enrichment of the phosphorylated peptide, bacterial display (enrichment ratio); higher = better substrate or ligand; peptides without Tyr show the background
Reported endpoint: SH2 binding enrichment

{"Seq text": "WFKKFYDANFD [MAPRE2_Y158_YF]", "SH2 binding enrichment": 0.639}
{"Seq text": "ERIEFYELNKK [PMM2_Y145_D148N]", "SH2 binding enrichment": 0.492}
{"Seq text": "EYKKKYSDADI [CKAP5_Y1860]", "SH2 binding enrichment": 0.614}
{"Seq text": "FGTAQYCCRMG [LRRK2_Y2023_I2020T_YF]", "SH2 binding enrichment": 0.863}
{"Seq text": "DDSNPYINVKL [MTHFD1_Y52_L51P]", "SH2 binding enrichment": 0.811}
{"Seq text": "ILLAGYLVMVI [SLC28A3_Y113]", "SH2 binding enrichment": 0.781}
{"Seq text": "YPQARYHWLVL [APTX_Y214_K211Q]", "SH2 binding enrichment": 1.43}
{"Seq text": "QEMMEYRHQIQ [DES_Y324]", "SH2 binding enrichment": 0.579}

[A] IINENYDYLKV [NUP98_Y1664_G1669V]
[B] QTENKYVSVSG [EIF2AK3_Y565_D566V]
[C] REENGYNTYAS [FGF10_Y161_I156R]
[D] LVKDPYVMFPQ [PLEKHG2_Y489_P484L]
// sort entries: SH2 binding enrichment, high to low Answer format: the labels, in the requested order.
B, C, A, D
(B: 2.59, C: 1.11, A: 0.687, D: 0.459)
